Biological target: T1, FHHDbf2-H6Mob1TM9 (Saccharomyces cerevisiae, UniProt P22204+P40484)
T1 construct: made in house; host or cells: Hi5 insect cells (baculovirus)
T1 sequence (P22204 1-572): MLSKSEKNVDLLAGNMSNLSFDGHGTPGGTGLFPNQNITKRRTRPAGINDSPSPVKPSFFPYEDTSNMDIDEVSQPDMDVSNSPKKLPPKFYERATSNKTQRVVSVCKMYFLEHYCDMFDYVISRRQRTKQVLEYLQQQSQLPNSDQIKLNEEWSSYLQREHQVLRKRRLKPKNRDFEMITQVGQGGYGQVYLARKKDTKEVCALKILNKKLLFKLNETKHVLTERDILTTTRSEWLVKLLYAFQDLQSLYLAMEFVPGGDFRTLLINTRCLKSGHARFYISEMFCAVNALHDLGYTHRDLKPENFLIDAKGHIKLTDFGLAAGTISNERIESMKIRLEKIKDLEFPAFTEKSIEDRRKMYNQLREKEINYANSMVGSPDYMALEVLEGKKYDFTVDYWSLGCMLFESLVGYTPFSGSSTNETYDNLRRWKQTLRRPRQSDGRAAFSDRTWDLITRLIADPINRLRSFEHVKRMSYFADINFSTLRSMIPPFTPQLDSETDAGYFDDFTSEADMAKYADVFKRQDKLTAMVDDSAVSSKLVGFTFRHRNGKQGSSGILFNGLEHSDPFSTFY
T1 sequence (P40484 1-314 partner): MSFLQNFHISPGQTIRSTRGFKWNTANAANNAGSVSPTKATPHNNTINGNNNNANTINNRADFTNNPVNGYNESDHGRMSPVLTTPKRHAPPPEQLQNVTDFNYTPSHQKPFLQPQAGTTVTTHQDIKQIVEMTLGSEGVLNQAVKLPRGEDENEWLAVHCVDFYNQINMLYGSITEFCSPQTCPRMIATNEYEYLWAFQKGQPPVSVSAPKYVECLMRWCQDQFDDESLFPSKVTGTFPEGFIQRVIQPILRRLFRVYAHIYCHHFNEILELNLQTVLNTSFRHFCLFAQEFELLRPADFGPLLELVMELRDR
Test: Yeast proteome chip assay
Assay type: biochemical
Settings: Table 3; GST fusion proteins on proteome chip, [γ-33P]ATP, chips in duplicate, computer analysis
Answer each item with its documented Slide Signal (after normalization).
Answers are plain numbers.

Some molecules with recorded Slide Signal (after normalization):
[
  {
    "molecule": "YLR007W: GST fusion yeast protein on proteome chip (protein, UniProt Q07913 1-336, looked up, GST tag, GST fusion yeast protein on proteome chip) Non-structural maintenance of …: MEVHEEQVSAPVTGDATAKYLLQYILSARGICHENALILALMRLETDASTLNTEWSIQQWVDKLNDYINAINVKLNLLGYKIIRINHGIGRNAVTLKAKQNFESFEDNTAIRAHNNDYAVLQSIVLPESNRFFVYVNLASTEETKLATRFNQNEIEFMKWAIEQFMISGETIVEGPALETSIIVKEVNRILVAATGDSNLAKWRKFSTFTVGSTNLFQFQELTATDIEDLLLRLCELKWFYRTQEGKFGIDLRCIAELEEYLTSMYNLNTCQNCHKLAIQGVRCGNESCREENEETGENSLSQIWHVDCFKHYITHVSKNCDRCGSSLITEGVYVI",
    "Slide Signal (after normalization)": 0.0988
  },
  {
    "molecule": "YOR362C: GST fusion yeast protein on proteome chip (protein, UniProt P21242 2-288, looked up, GST tag, GST fusion yeast protein on proteome chip) Probable proteasome subunit …: TSIGTGYDLSNSVFSPDGRNFQVEYAVKAVENGTTSIGIKCNDGVVFAVEKLITSKLLVPQKNVKIQVVDRHIGCVYSGLIPDGRHLVNRGREEAASFKKLYKTPIPIPAFADRLGQYVQAHTLYNSVRPFGVSTIFGGVDKNGAHLYMLEPSGSYWGYKGAATGKGRQSAKAELEKLVDHHPEGLSAREAVKQAAKIIYLAHEDNKEKDFELEISWCSLSETNGLHKFVKGDLLQEAIDFAQKEINGDDDEDEDDSDNVMSSDDENAPVATNANATTDQEGDIHLE",
    "Slide Signal (after normalization)": 0.9895
  },
  {
    "molecule": "YFR033C: GST fusion yeast protein on proteome chip (protein, UniProt P00127 1-147, looked up, GST fusion, GST fusion yeast protein on proteome chip) Cytochrome b-c1 complex …: MGMLELVGEYWEQLKITVVPVVAAAEDDDNEQHEEKAAEGEEKEEENGDEDEDEDEDEDDDDDDDEDEEEEEEVTDQLEDLREHFKNTEEGKALVHHYEECAERVKIQQQQPGYADLEHKEDCVEEFFHLQHYLDTATAPRLFDKLK",
    "Slide Signal (after normalization)": 0.042
  }
]

Moving on to the next molecule.
I am curious: what Slide Signal (after normalization) value has been reported for YPL211W: GST fusion yeast protein on proteome chip (protein, UniProt Q08962 1-181, looked up, GST tag, GST fusion yeast protein on proteome chip) 60S ribosome subunit …: MRQLTEEETKVVFEKLAGYIGRNISFLVDNKELPHVFRLQKDRVYYVPDHVAKLATSVARPNLMSLGICLGKFTKTGKFRLHITSLTVLAKHAKYKIWIKPNGEMPFLYGNHVLKAHVGKMSDDIPEHAGVIVFAMNDVPLGFGVSAKSTSESRNMQPTGIVAFRQADIGEYLRDEDTLFT ?
0.4521
